Each entry below lists one item and its recorded log10 TGI value.
Tested on: NCI-H23
ASSAY_NAME: Cytotoxicity against Homo sapiens (human) NCI-H23 cells after 48 hr by sulforhodamine B assay
Type: functional
EXPERIMENTAL_PARAMETERS: NCI-H23, 48 h
REPORTED_ENDPOINT: log10 TGI (log10 of the value in µM)

{"CHEMICAL_SMILES": "ClCc1ccccc1Cn1cnc2ncnc(Cl)c21", "MEASURED_ON": "NCI-H23", "log10 TGI": 1.24}
{"CHEMICAL_SMILES": "ClCc1ccc(Cn2cnc3c(Cl)nc(Cl)nc32)cc1", "MEASURED_ON": "NCI-H23", "log10 TGI": 1.37}
{"CHEMICAL_SMILES": "ClCc1ccccc1Cn1cnc2c(Cl)nc(Cl)nc21", "MEASURED_ON": "NCI-H23", "log10 TGI": 0.49}
{"CHEMICAL_SMILES": "ClCc1cccc(Cn2cnc3ncnc(Cl)c32)c1", "MEASURED_ON": "NCI-H23", "log10 TGI": 0.53}
{"CHEMICAL_SMILES": "ClCc1cccc(Cn2cnc3c(Cl)nc(Cl)nc32)c1", "MEASURED_ON": "NCI-H23", "log10 TGI": 0.71}
{"CHEMICAL_SMILES": "ClCc1cccc(Cn2cnc3nc(Cl)nc(Cl)c32)c1", "MEASURED_ON": "NCI-H23", "log10 TGI": 1.49}
{"CHEMICAL_SMILES": "ClCc1ccc(Cn2cnc3c(Cl)ncnc32)cc1", "MEASURED_ON": "NCI-H23", "log10 TGI": 0.39}
{"CHEMICAL_SMILES": "ClCc1ccccc1Cn1cnc2c(Cl)ncnc21", "MEASURED_ON": "NCI-H23", "log10 TGI": 0.64}
{"CHEMICAL_SMILES": "ClCc1ccc(Cn2cnc3ncnc(Cl)c32)cc1", "MEASURED_ON": "NCI-H23", "log10 TGI": 1.49}
{"CHEMICAL_SMILES": "ClCc1ccc(Cn2cnc3nc(Cl)nc(Cl)c32)cc1", "MEASURED_ON": "NCI-H23", "log10 TGI": 0.66}
{"CHEMICAL_SMILES": "Nc1nc(Cl)c2ncn(Cc3ccccc3CCl)c2n1", "MEASURED_ON": "NCI-H23", "log10 TGI": 0.95}
{"CHEMICAL_SMILES": "ClCc1cccc(Cn2cnc3c(Cl)ncnc32)c1", "MEASURED_ON": "NCI-H23", "log10 TGI": 0.61}
{"CHEMICAL_SMILES": "Nc1nc(Cl)c2ncn(Cc3ccc(CCl)cc3)c2n1", "MEASURED_ON": "NCI-H23", "log10 TGI": 1.48}
{"CHEMICAL_SMILES": "Nc1nc(Cl)c2ncn(Cc3cccc(CCl)c3)c2n1", "MEASURED_ON": "NCI-H23", "log10 TGI": 0.70}
{"CHEMICAL_SMILES": "ClCc1ccccc1Cn1cnc2nc(Cl)nc(Cl)c21", "MEASURED_ON": "NCI-H23", "log10 TGI": 1.61}

---

Tested on: HCT-15
ASSAY_NAME: Cytotoxicity against Homo sapiens (human) HCT15 cells after 48 hr by sulforhodamine B assay
Type: functional
EXPERIMENTAL_PARAMETERS: HCT-15, 48 h
Please map values of GI50 to classes as shown: zone 1: < 1 µM; zone 2: ≥ 1 µM and < 2 µM; zone 3: ≥ 2 µM

{"CHEMICAL_SMILES": "ClCc1ccccc1Cn1cnc2c(Cl)nc(Cl)nc21", "CLASS_ASSIGNMENT": "zone 1"}
{"CHEMICAL_SMILES": "ClCc1ccccc1Cn1cnc2nc(Cl)nc(Cl)c21", "CLASS_ASSIGNMENT": "zone 1"}
{"CHEMICAL_SMILES": "ClCc1ccc(Cn2cnc3c(Cl)nc(Cl)nc32)cc1", "CLASS_ASSIGNMENT": "zone 2"}
{"CHEMICAL_SMILES": "ClCc1cccc(Cn2cnc3c(Cl)ncnc32)c1", "CLASS_ASSIGNMENT": "zone 3"}
{"CHEMICAL_SMILES": "ClCc1cccc(Cn2cnc3ncnc(Cl)c32)c1", "CLASS_ASSIGNMENT": "zone 2"}
{"CHEMICAL_SMILES": "ClCc1ccccc1Cn1cnc2c(Cl)ncnc21", "CLASS_ASSIGNMENT": "zone 3"}
{"CHEMICAL_SMILES": "ClCc1cccc(Cn2cnc3c(Cl)nc(Cl)nc32)c1", "CLASS_ASSIGNMENT": "zone 3"}
{"CHEMICAL_SMILES": "ClCc1ccccc1Cn1cnc2ncnc(Cl)c21", "CLASS_ASSIGNMENT": "zone 2"}
{"CHEMICAL_SMILES": "Nc1nc(Cl)c2ncn(Cc3cccc(CCl)c3)c2n1", "CLASS_ASSIGNMENT": "zone 3"}
{"CHEMICAL_SMILES": "ClCc1cccc(Cn2cnc3nc(Cl)nc(Cl)c32)c1", "CLASS_ASSIGNMENT": "zone 1"}
{"CHEMICAL_SMILES": "ClCc1ccc(Cn2cnc3nc(Cl)nc(Cl)c32)cc1", "CLASS_ASSIGNMENT": "zone 2"}

---

Test system: SK-MEL-5
ASSAY_NAME: Cytotoxicity against Homo sapiens (human) SK-MEL-5 cells after 48 hr by sulforhodamine B assay
Type: functional
EXPERIMENTAL_PARAMETERS: SK-MEL-5, 48 h
REPORTED_ENDPOINT: log10(GI50) (log10 of the value in nM)

{"CHEMICAL_SMILES": "ClCc1ccccc1Cn1cnc2ncnc(Cl)c21", "MEASURED_ON": "SK-MEL-5", "ENDPOINT_RESULT": 3.14}
{"CHEMICAL_SMILES": "Nc1nc(Cl)c2ncn(Cc3cccc(CCl)c3)c2n1", "MEASURED_ON": "SK-MEL-5", "ENDPOINT_RESULT": 4.04}
{"CHEMICAL_SMILES": "ClCc1ccccc1Cn1cnc2c(Cl)nc(Cl)nc21", "MEASURED_ON": "SK-MEL-5", "ENDPOINT_RESULT": 2.62}
{"CHEMICAL_SMILES": "ClCc1ccccc1Cn1cnc2c(Cl)ncnc21", "MEASURED_ON": "SK-MEL-5", "ENDPOINT_RESULT": 3.15}
{"CHEMICAL_SMILES": "ClCc1ccc(Cn2cnc3nc(Cl)nc(Cl)c32)cc1", "MEASURED_ON": "SK-MEL-5", "ENDPOINT_RESULT": 3.39}
{"CHEMICAL_SMILES": "ClCc1cccc(Cn2cnc3nc(Cl)nc(Cl)c32)c1", "MEASURED_ON": "SK-MEL-5", "ENDPOINT_RESULT": 3.08}
{"CHEMICAL_SMILES": "ClCc1cccc(Cn2cnc3c(Cl)nc(Cl)nc32)c1", "MEASURED_ON": "SK-MEL-5", "ENDPOINT_RESULT": 3.20}
{"CHEMICAL_SMILES": "ClCc1cccc(Cn2cnc3c(Cl)ncnc32)c1", "MEASURED_ON": "SK-MEL-5", "ENDPOINT_RESULT": 3.36}
{"CHEMICAL_SMILES": "ClCc1ccc(Cn2cnc3c(Cl)nc(Cl)nc32)cc1", "MEASURED_ON": "SK-MEL-5", "ENDPOINT_RESULT": 3.81}
{"CHEMICAL_SMILES": "ClCc1ccc(Cn2cnc3c(Cl)ncnc32)cc1", "MEASURED_ON": "SK-MEL-5", "ENDPOINT_RESULT": 3.51}
{"CHEMICAL_SMILES": "ClCc1ccc(Cn2cnc3ncnc(Cl)c32)cc1", "MEASURED_ON": "SK-MEL-5", "ENDPOINT_RESULT": 3.45}
{"CHEMICAL_SMILES": "ClCc1ccccc1Cn1cnc2nc(Cl)nc(Cl)c21", "MEASURED_ON": "SK-MEL-5", "ENDPOINT_RESULT": 2.87}
{"CHEMICAL_SMILES": "ClCc1cccc(Cn2cnc3ncnc(Cl)c32)c1", "MEASURED_ON": "SK-MEL-5", "ENDPOINT_RESULT": 3.67}

---

Here the recorded CC50 is given for each entry.
Tested on: SF-295
ASSAY_NAME: Cytotoxicity against Homo sapiens (human) SF295 cells after 48 hr by sulforhodamine B assay
Format: functional
EXPERIMENTAL_PARAMETERS: SF-295, 48 h, read-out: LC50 (the source's name)

{"CHEMICAL_SMILES": "ClCc1ccccc1Cn1cnc2ncnc(Cl)c21", "CC50 / µM": 46.8}
{"CHEMICAL_SMILES": "ClCc1cccc(Cn2cnc3ncnc(Cl)c32)c1", "CC50 / µM": 64.6}
{"CHEMICAL_SMILES": "ClCc1ccc(Cn2cnc3ncnc(Cl)c32)cc1", "CC50 / µM": 17}
{"CHEMICAL_SMILES": "ClCc1cccc(Cn2cnc3c(Cl)ncnc32)c1", "CC50 / µM": 29.5}
{"CHEMICAL_SMILES": "Nc1nc(Cl)c2ncn(Cc3ccccc3CCl)c2n1", "CC50 / µM": 63.1}
{"CHEMICAL_SMILES": "ClCc1ccc(Cn2cnc3c(Cl)nc(Cl)nc32)cc1", "CC50 / µM": 44.7}
{"CHEMICAL_SMILES": "ClCc1ccccc1Cn1cnc2c(Cl)nc(Cl)nc21", "CC50 / µM": 6.02}
{"CHEMICAL_SMILES": "ClCc1ccccc1Cn1cnc2nc(Cl)nc(Cl)c21", "CC50 / µM": 61.6}
{"CHEMICAL_SMILES": "Nc1nc(Cl)c2ncn(Cc3cccc(CCl)c3)c2n1", "CC50 / µM": 39.8}
{"CHEMICAL_SMILES": "ClCc1ccc(Cn2cnc3c(Cl)ncnc32)cc1", "CC50 / µM": 24}
{"CHEMICAL_SMILES": "ClCc1cccc(Cn2cnc3c(Cl)nc(Cl)nc32)c1", "CC50 / µM": 45.7}
{"CHEMICAL_SMILES": "Nc1nc(Cl)c2ncn(Cc3ccc(CCl)cc3)c2n1", "CC50 / µM": 72.4}
{"CHEMICAL_SMILES": "ClCc1ccccc1Cn1cnc2c(Cl)ncnc21", "CC50 / µM": 51.3}
{"CHEMICAL_SMILES": "ClCc1ccc(Cn2cnc3nc(Cl)nc(Cl)c32)cc1", "CC50 / µM": 5.88}
{"CHEMICAL_SMILES": "ClCc1cccc(Cn2cnc3nc(Cl)nc(Cl)c32)c1", "CC50 / µM": 6.3}
